assay.target: S. cervi PFK (phosphofructokinase)
Construct: native enzyme purified to electrophoretic homogeneity from adult female worms (from buffalo peritoneal folds); subunit mass 90 kDa
protocol.text: coupled assay (aldolase/TPI/GDH, NADH oxidation at […] nm), Lineweaver-Burk
Assay type: biochemical, Setaria cervi
experimental.context: competitive vs F-6-P; 0.1 mM ATP, 3.3 mM Mg2+, Tris-HCl pH 8.0; aldolase in coupling system acts on FDP
assay.endpoint: Ki (nM)
Response body: numeric value in nM, unit text excluded.

Query: Ki lookup needed for O=P(O)(O)OC[C@H]1OC(O)(COP(=O)(O)O)[C@@H](O)[C@@H]1O (stereo partly drawn) [FDP, D-fructose-1,6-diphosphate] , thanks.
Reply: 180

Cited source: paper PMC3173978
